particulars: in isobutanol, 303.15 K
measured_parameter: solubility (mole fraction)

smi=Cc1cc(C)nc(Nc2ccccc2)n1 measured_parameter="solubility (mole fraction)" result=0.0345

---

particulars: in ethanol, 283.15 K
measured_parameter: solubility (mole fraction)

smi=Cc1cc(C)nc(Nc2ccccc2)n1 result=0.0146

---

particulars: in isobutanol, 283.15 K
measured_parameter: solubility (mole fraction)

smi=Cc1cc(C)nc(Nc2ccccc2)n1 measured_parameter="solubility (mole fraction)" result=0.0148

---

particulars: in n-propanol, 303.15 K
measured_parameter: solubility (mole fraction)

smi=Cc1cc(C)nc(Nc2ccccc2)n1 result=0.037

---

particulars: in n-propanol, 283.15 K
measured_parameter: solubility (mole fraction)

smi=Cc1cc(C)nc(Nc2ccccc2)n1 result=0.0179

---

particulars: in isobutanol, 293.15 K
measured_parameter: solubility (mole fraction)

smi=Cc1cc(C)nc(Nc2ccccc2)n1 measured_parameter="solubility (mole fraction)" result=0.0236

---

particulars: in n-propanol, 293.15 K
measured_parameter: solubility (mole fraction)

smi=Cc1cc(C)nc(Nc2ccccc2)n1 result=0.0264

---

particulars: in n-butanol, 313.15 K
measured_parameter: solubility (mole fraction)

smi=Cc1cc(C)nc(Nc2ccccc2)n1 result=0.0813

---

particulars: in isopropanol, 323.15 K
measured_parameter: solubility (mole fraction)

smi=Cc1cc(C)nc(Nc2ccccc2)n1 measured_parameter="solubility (mole fraction)" result=0.0861

---

particulars: in methanol, 288.15 K
measured_parameter: solubility (mole fraction)

smi=Cc1cc(C)nc(Nc2ccccc2)n1 result=0.0162

---

particulars: in cyclohexane, 298.15 K
measured_parameter: solubility (mole fraction)

smi=Cc1cc(C)nc(Nc2ccccc2)n1 result=0.0123

---

particulars: in cyclohexane, 293.15 K
measured_parameter: solubility (mole fraction)

smi=Cc1cc(C)nc(Nc2ccccc2)n1 result=0.0095

---

particulars: in n-butanol, 283.15 K
measured_parameter: solubility (mole fraction)

smi=Cc1cc(C)nc(Nc2ccccc2)n1 result=0.0193

---

particulars: in ethanol, 293.15 K
measured_parameter: solubility (mole fraction)

smi=Cc1cc(C)nc(Nc2ccccc2)n1 result=0.0211

---

particulars: in n-propanol, 288.15 K
measured_parameter: solubility (mole fraction)

smi=Cc1cc(C)nc(Nc2ccccc2)n1 result=0.0215

---

particulars: in isobutanol, 298.15 K
measured_parameter: solubility (mole fraction)

smi=Cc1cc(C)nc(Nc2ccccc2)n1 measured_parameter="solubility (mole fraction)" result=0.028

---

particulars: in isobutanol, 308.15 K
measured_parameter: solubility (mole fraction)

smi=Cc1cc(C)nc(Nc2ccccc2)n1 result=0.0454

---

particulars: in ethanol, 313.15 K
measured_parameter: solubility (mole fraction)

smi=Cc1cc(C)nc(Nc2ccccc2)n1 measured_parameter="solubility (mole fraction)" result=0.0577

---

particulars: in cyclohexane, 288.15 K
measured_parameter: solubility (mole fraction)

smi=Cc1cc(C)nc(Nc2ccccc2)n1 measured_parameter="solubility (mole fraction)" result=0.00751

---

particulars: in n-butanol, 323.15 K
measured_parameter: solubility (mole fraction)

smi=Cc1cc(C)nc(Nc2ccccc2)n1 measured_parameter="solubility (mole fraction)" result=0.145

---

particulars: in n-butanol, 293.15 K
measured_parameter: solubility (mole fraction)

smi=Cc1cc(C)nc(Nc2ccccc2)n1 measured_parameter="solubility (mole fraction)" result=0.0317

---

particulars: in n-butanol, 298.15 K
measured_parameter: solubility (mole fraction)

smi=Cc1cc(C)nc(Nc2ccccc2)n1 result=0.0389

---

particulars: in n-propanol, 318.15 K
measured_parameter: solubility (mole fraction)

smi=Cc1cc(C)nc(Nc2ccccc2)n1 measured_parameter="solubility (mole fraction)" result=0.0971

---

particulars: in n-butanol, 308.15 K
measured_parameter: solubility (mole fraction)

smi=Cc1cc(C)nc(Nc2ccccc2)n1 result=0.0638

---

particulars: in n-butanol, 288.15 K
measured_parameter: solubility (mole fraction)

smi=Cc1cc(C)nc(Nc2ccccc2)n1 measured_parameter="solubility (mole fraction)" result=0.0251

---

particulars: in cyclohexane, 303.15 K
measured_parameter: solubility (mole fraction)

smi=Cc1cc(C)nc(Nc2ccccc2)n1 measured_parameter="solubility (mole fraction)" result=0.0157

---

particulars: in isopropanol, 303.15 K
measured_parameter: solubility (mole fraction)

smi=Cc1cc(C)nc(Nc2ccccc2)n1 measured_parameter="solubility (mole fraction)" result=0.025

---

particulars: in isopropanol, 308.15 K
measured_parameter: solubility (mole fraction)

smi=Cc1cc(C)nc(Nc2ccccc2)n1 measured_parameter="solubility (mole fraction)" result=0.0324

---

particulars: in ethanol, 323.15 K
measured_parameter: solubility (mole fraction)

smi=Cc1cc(C)nc(Nc2ccccc2)n1 result=0.112

---

particulars: in ethanol, 288.15 K
measured_parameter: solubility (mole fraction)

smi=Cc1cc(C)nc(Nc2ccccc2)n1 result=0.0175

---

particulars: in ethanol, 298.15 K
measured_parameter: solubility (mole fraction)

smi=Cc1cc(C)nc(Nc2ccccc2)n1 measured_parameter="solubility (mole fraction)" result=0.0267

---

particulars: in n-propanol, 323.15 K
measured_parameter: solubility (mole fraction)

smi=Cc1cc(C)nc(Nc2ccccc2)n1 measured_parameter="solubility (mole fraction)" result=0.131

---

particulars: in n-butanol, 318.15 K
measured_parameter: solubility (mole fraction)

smi=Cc1cc(C)nc(Nc2ccccc2)n1 measured_parameter="solubility (mole fraction)" result=0.112

---

particulars: in methanol, 283.15 K
measured_parameter: solubility (mole fraction)

smi=Cc1cc(C)nc(Nc2ccccc2)n1 measured_parameter="solubility (mole fraction)" result=0.0138

---

particulars: in cyclohexane, 313.15 K
measured_parameter: solubility (mole fraction)

smi=Cc1cc(C)nc(Nc2ccccc2)n1 result=0.0304

---

particulars: in ethanol, 303.15 K
measured_parameter: solubility (mole fraction)

smi=Cc1cc(C)nc(Nc2ccccc2)n1 measured_parameter="solubility (mole fraction)" result=0.0332

---

particulars: in ethanol, 318.15 K
measured_parameter: solubility (mole fraction)

smi=Cc1cc(C)nc(Nc2ccccc2)n1 measured_parameter="solubility (mole fraction)" result=0.0785

---

particulars: in isopropanol, 288.15 K
measured_parameter: solubility (mole fraction)

smi=Cc1cc(C)nc(Nc2ccccc2)n1 result=0.0126

---

particulars: in methanol, 308.15 K
measured_parameter: solubility (mole fraction)

smi=Cc1cc(C)nc(Nc2ccccc2)n1 measured_parameter="solubility (mole fraction)" result=0.0418

---

particulars: in isopropanol, 293.15 K
measured_parameter: solubility (mole fraction)

smi=Cc1cc(C)nc(Nc2ccccc2)n1 measured_parameter="solubility (mole fraction)" result=0.016

---

particulars: in isopropanol, 318.15 K
measured_parameter: solubility (mole fraction)

smi=Cc1cc(C)nc(Nc2ccccc2)n1 measured_parameter="solubility (mole fraction)" result=0.0611

---

particulars: in ethanol, 308.15 K
measured_parameter: solubility (mole fraction)

smi=Cc1cc(C)nc(Nc2ccccc2)n1 result=0.0438

---

particulars: in isobutanol, 323.15 K
measured_parameter: solubility (mole fraction)

smi=Cc1cc(C)nc(Nc2ccccc2)n1 measured_parameter="solubility (mole fraction)" result=0.13

---

particulars: in cyclohexane, 308.15 K
measured_parameter: solubility (mole fraction)

smi=Cc1cc(C)nc(Nc2ccccc2)n1 measured_parameter="solubility (mole fraction)" result=0.0213

---

particulars: in isopropanol, 313.15 K
measured_parameter: solubility (mole fraction)

smi=Cc1cc(C)nc(Nc2ccccc2)n1 result=0.0429

---

particulars: in isopropanol, 283.15 K
measured_parameter: solubility (mole fraction)

smi=Cc1cc(C)nc(Nc2ccccc2)n1 result=0.0103

---

particulars: in methanol, 323.15 K
measured_parameter: solubility (mole fraction)

smi=Cc1cc(C)nc(Nc2ccccc2)n1 measured_parameter="solubility (mole fraction)" result=0.107

Reference source for all entries: BigSolDB 2.1
